# tgt: T1, mouse CTGF (Abbexa) (mouse, UniProt P29268 26-348, limits assumed)
# T1 construct: also called Murine CTGF; mCTGF
# T1 sequence (looked up): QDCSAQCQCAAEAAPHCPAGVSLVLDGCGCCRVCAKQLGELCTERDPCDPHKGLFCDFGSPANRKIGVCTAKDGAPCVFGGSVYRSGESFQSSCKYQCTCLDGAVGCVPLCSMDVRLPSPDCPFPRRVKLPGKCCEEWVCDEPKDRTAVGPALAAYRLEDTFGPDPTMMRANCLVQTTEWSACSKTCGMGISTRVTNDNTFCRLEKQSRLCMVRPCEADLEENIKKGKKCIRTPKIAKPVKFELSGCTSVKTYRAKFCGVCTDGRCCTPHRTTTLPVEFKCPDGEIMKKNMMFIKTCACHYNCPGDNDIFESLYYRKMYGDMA
# assayMethodText: SPR (Biacore)
experimentalEndpoint: kon (M⁻¹ s⁻¹)

>>> value("lipocalin mutein of SEQ ID NO: 14 (designed binder, also called hNGAL mutein; not shown: C-terminal His-tag) QDSTSDLIPAPPLSKVPLQQNFQDNQFQGKWYVVGLAGNAILREDKYPAKMFATIYELKEDKSYDVTSVRFEAKSCIYTIKTFVPGSQPGEFTRGNIKSAPGQTSTLVRVVSTNYNQHAMVFFKHVSQNREIFVITLYGRTKELTSELKENFIRFSKSLGLPENHIVFPVPIDQCIDG")
190000
>>> value("lipocalin mutein of SEQ ID NO: 15 (designed binder, also called hNGAL mutein; not shown: C-terminal His-tag) QDSTSDLIPAPPLSKVPLQQNFQDNQFQGKWYVVGLAGNAILREDKQPAKMFATIYELKEDKSYDVTSVRFEAKSCKYTIKTFVPGSQPGEFTAGYIKSAPGQTSTLVRVVSTNYNQHAMVFFKHVTQNREIFVITLYGRTKELTSELKENFIRFSKSLGLPENHIVFPVPIDQCIDG")
129000

Numbers sourced from patent US20240228562A1.
